target: EZH2 (rPRC2) (Homo sapiens); test: EZH2 assay: rPRC2, biotinylated oligonucleosomes, 3H SAM methyl transfer (FlashPlate scintillation); assay type: biochemical; settings: wild-type EZH2 (rPRC2), biotinylated oligonucleosome substrate; read-out: EZH2 IC50
Sequence (Q15910 whole entry): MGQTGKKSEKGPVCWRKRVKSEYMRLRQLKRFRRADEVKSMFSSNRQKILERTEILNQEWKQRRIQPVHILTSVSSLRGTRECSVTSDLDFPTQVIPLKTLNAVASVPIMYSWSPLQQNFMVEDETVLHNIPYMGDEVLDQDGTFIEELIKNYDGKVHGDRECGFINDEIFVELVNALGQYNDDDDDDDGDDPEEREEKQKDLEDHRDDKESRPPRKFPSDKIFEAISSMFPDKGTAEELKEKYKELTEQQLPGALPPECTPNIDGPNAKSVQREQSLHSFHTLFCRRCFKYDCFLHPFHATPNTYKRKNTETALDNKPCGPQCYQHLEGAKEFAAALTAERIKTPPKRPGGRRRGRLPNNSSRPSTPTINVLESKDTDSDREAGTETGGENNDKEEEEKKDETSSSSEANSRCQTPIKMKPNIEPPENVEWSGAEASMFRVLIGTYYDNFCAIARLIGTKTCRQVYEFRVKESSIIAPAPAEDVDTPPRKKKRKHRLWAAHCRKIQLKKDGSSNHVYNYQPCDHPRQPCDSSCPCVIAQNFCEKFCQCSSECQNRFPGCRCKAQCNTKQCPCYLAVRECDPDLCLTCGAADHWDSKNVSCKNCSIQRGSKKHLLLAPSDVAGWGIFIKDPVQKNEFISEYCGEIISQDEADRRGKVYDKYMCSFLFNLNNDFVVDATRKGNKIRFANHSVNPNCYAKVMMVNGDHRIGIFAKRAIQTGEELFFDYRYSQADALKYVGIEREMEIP
Sequence (O75530 whole entry partner): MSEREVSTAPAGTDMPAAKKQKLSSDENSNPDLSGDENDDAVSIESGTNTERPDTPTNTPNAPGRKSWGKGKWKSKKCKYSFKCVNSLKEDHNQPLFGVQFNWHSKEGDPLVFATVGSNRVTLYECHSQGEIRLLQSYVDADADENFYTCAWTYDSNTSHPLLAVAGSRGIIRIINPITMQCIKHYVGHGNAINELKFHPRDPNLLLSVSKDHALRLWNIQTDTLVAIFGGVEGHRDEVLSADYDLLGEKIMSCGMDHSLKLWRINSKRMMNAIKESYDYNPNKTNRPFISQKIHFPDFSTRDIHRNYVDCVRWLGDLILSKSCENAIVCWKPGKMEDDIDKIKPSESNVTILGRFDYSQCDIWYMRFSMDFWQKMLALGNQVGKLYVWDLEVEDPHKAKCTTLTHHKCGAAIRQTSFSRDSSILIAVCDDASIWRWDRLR
Sequence (Q15022 whole entry partner): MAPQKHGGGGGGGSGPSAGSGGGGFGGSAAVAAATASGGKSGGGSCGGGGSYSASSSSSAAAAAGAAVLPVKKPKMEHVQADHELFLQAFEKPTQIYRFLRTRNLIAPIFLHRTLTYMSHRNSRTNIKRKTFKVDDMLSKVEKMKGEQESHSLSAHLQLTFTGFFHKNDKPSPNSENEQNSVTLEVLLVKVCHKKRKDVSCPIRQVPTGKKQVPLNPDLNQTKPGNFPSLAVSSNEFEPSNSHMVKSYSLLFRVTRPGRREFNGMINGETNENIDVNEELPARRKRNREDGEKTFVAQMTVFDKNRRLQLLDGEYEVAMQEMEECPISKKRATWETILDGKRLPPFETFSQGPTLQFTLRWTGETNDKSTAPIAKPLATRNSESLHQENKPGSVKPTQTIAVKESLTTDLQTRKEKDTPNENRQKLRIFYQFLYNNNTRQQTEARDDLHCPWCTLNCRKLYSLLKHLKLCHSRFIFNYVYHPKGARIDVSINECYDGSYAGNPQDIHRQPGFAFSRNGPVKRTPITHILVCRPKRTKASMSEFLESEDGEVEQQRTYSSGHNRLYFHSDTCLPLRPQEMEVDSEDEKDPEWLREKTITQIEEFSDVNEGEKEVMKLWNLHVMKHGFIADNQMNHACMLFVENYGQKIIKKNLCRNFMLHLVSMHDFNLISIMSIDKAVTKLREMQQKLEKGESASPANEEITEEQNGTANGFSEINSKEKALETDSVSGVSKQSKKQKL
Kindly supply the reported IC50 values for the records listed here.

Input: Quick one: IC50 for COc1cc(C)[nH]c(=O)c1CNC(=O)c1c(C)n(C(C)C2CCN(C(=O)OC(C)(C)C)CC2)c2ncncc12 (stereo not shown) [Compound 332] ?
Output: < 100 nM

Input: Let us now turn to Cc1cc(C)c(CNC(=O)c2c(C)n(C(C)Cn3cccn3)c3ncccc23)c(=O)[nH]1 (racemic) [Compound 221]
Output: 100 to 1000 nM

Input: Do the same for COCC(C)n1c(C)c(C(=O)NCc2c(C)cc(C)[nH]c2=O)c2scnc21 (racemic) [Compound 254] please
Output: 100 to 1000 nM

Input: Same lookup for Cc1cc(C)c(CNC(=O)c2cn(S(=O)(=O)c3ccccc3)c3ccccc23)c(=O)[nH]1 [Compound 135] , please.
Output: 1000 to 10000 nM

Input: Same question for COc1cc(C)[nH]c(=O)c1CNC(=O)c1c(C)n(C(=O)C2CCOCC2)c2ccccc12 [Compound 372] please.
Output: 100 to 1000 nM

Input: Now try Cc1cc(C)c(CNC(=O)c2c(C)n(C(C)c3ccccc3)c3c(=O)n(C)ccc23)c(=O)[nH]1 (racemic) [Compound 139] .
Output: 100 to 1000 nM

Input: What would you report for COc1cc(C)[nH]c(=O)c1CNC(=O)c1c(C)n(C(=O)CC(C)C)c2ccccc12 [Compound 329] ?
Output: 100 to 1000 nM

Input: Another: Cc1cc(C)c(CNC(=O)c2c(C)n(S(=O)(=O)c3ccccc3)c3ccccc23)c(O)n1 [Compound 145]
Output: < 100 nM

Input: Ok, now Cc1cc(C)c(CNC(=O)c2c(C)n(C(=O)c3ccccc3)c3ccccc23)c(O)n1 [Compound 150]
Output: 100 to 1000 nM

Input: Quick one: Cc1cc(C)c(CNC(=O)c2c(C)n(C(C)Cn3cnc4ccccc43)c3ncccc23)c(=O)[nH]1 (racemic) [Compound 238]
Output: 100 to 1000 nM
